The measurements presented in this section are drawn from patent US11046699B2.

target: UniProtKB Q9P2K8; test: GCN2 enzymatic endpoint assay: phosphorylation of GFP-eIF2α measured by TR-FRET (Lanthascreen); type: biochemical; conditions: tested as described in Example 77; compound and/or hydrochloride, dihydrochloride or trifluoroacetic acid salt; read-out: IC 50 Activity
readout-type: IC50

Would you please look over these solved cases?
{"columns": ["compound", "IC50"],
 "data": [
  ["CNC(=O)[C@]1(C)CC[C@@H](Nc2ncc3c(Br)nn(-c4ccc(-c5nnco5)cc4)c3n2)C1", "25 to 200 nM"],
  ["CC(C)(NC(=O)[C@@H]1CC[C@@H](Nc2ncc3c(Br)nn(-c4cc(C#N)c5ncccc5c4)c3n2)C1)C(N)=O", "< 25 nM"],
  ["CNC(=O)[C@]1(C)CC[C@@H](Nc2ncc3c(Br)nn(-c4cc(C#N)cc(OCC5CNC5)c4)c3n2)C1", "< 25 nM"]
]}

Name the recorded IC50 of the item CCC(=O)N1CCN(C(=O)[C@@H]2CC[C@@H](Nc3ncc4c(Br)nn(-c5cc(F)c6ncccc6c5)c4n3)C2)C1 in your answer.
< 25 nM

Name the recorded IC50 of the item O=C(NCCn1ccnc1)[C@@H]1CC[C@@H](Nc2ncc3c(Br)nn(-c4ccc5ncccc5c4)c3n2)C1 in your answer.
25 to 200 nM

Name the recorded IC50 of the item CNC(=O)C1CCN(C(=O)[C@@H]2CC[C@@H](Nc3ncc4c(Br)nn(-c5cc(F)c6ncccc6c5)c4n3)C2)C1 (mixture of isomers) in your answer.
25 to 200 nM

Name the recorded IC50 of the item CNC(=O)[C@]1(C)CC[C@@H](Nc2ncc3c(Br)nn(-c4ccc(-c5ncco5)c(CCN5CCOCC5)c4)c3n2)C1 in your answer.
25 to 200 nM

Name the recorded IC50 of the item CS(=O)(=O)CCNC(=O)[C@@H]1CC[C@@H](Nc2ncc3c(Br)nn(-c4ccc5nccnc5c4)c3n2)C1 in your answer.
200 to 500 nM

* * *

Recorded IC50, one value per entry.
target: GCN2 (Homo sapiens, UniProt Q9P2K8); test: GCN2 enzymatic endpoint assay: phosphorylation of GFP-eIF2α measured by TR-FRET (Lanthascreen); assay type: biochemical; conditions: tested as described in Example 77; compound and/or hydrochloride, dihydrochloride or trifluoroacetic acid salt; read-out: IC 50 Activity
Sequence (Q9P2K8 whole entry): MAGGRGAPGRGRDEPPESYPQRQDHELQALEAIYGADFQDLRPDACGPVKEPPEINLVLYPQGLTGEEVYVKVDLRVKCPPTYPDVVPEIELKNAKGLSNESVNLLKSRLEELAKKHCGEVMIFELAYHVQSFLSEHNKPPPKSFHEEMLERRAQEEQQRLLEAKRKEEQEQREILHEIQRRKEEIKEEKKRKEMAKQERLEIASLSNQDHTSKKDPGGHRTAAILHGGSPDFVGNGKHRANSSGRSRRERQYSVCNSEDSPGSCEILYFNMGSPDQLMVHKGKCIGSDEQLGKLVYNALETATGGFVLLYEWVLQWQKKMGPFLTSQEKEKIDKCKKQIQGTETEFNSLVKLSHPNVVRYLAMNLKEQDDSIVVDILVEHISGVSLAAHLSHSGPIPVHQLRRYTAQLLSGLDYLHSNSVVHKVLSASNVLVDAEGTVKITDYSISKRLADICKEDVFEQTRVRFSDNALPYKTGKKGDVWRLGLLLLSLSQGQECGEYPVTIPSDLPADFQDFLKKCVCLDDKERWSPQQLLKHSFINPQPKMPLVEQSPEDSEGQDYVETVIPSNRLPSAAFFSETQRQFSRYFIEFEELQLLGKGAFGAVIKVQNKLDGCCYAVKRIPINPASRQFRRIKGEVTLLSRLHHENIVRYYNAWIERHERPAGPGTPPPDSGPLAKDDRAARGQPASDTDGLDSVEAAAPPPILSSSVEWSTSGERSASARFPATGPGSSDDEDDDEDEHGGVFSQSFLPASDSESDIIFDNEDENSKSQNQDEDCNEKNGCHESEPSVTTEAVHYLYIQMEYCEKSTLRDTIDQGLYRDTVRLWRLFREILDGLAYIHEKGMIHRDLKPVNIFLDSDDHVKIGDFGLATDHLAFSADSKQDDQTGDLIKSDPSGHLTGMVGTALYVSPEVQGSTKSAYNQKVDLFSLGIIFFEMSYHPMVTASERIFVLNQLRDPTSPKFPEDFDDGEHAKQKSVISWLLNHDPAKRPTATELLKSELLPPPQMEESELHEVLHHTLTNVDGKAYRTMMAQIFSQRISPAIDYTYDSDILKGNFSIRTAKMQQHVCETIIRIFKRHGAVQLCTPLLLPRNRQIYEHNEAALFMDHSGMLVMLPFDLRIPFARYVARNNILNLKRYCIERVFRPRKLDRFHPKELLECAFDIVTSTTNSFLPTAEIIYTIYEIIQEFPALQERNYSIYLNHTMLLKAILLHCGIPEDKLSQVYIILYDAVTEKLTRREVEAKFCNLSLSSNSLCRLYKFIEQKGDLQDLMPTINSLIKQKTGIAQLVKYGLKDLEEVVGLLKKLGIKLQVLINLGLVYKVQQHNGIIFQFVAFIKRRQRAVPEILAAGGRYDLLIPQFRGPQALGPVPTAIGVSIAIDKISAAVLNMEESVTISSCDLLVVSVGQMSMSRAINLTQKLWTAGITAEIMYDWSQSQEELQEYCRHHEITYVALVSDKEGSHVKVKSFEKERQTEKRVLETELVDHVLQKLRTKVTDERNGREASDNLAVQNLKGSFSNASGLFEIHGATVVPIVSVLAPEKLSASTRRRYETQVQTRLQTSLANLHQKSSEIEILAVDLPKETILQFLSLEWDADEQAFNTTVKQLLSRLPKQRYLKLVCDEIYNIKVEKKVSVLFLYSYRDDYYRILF

Would you please look over these solved cases?
{"columns": ["molecule", "target-entity", "IC50"],
 "data": [
  ["O=S(=O)([C@@H]1CC[C@@H](Nc2ncc3c(Br)nn(-c4ccc5ncccc5c4)c3n2)C1)N1CCOCC1", "GCN2 (Homo sapiens, UniProt Q9P2K8)", "200 to 500 nM"],
  ["CNC(=O)C1(C)CC[C@@H](Nc2ncc3c(Br)nn(-c4ccc(-c5nc(C)no5)cc4)c3n2)C1 (stereo partly shown)", "GCN2 (Homo sapiens, UniProt Q9P2K8)", "25 to 200 nM"],
  ["CNC(=O)[C@]1(C)CC[C@@H](Nc2ncc3c(Br)nn(-c4cc(CCN)c5cnccc5c4)c3n2)C1", "GCN2 (Homo sapiens, UniProt Q9P2K8)", "< 25 nM"],
  ["O=C([C@@H]1CC[C@@H](Nc2ncc3c(Br)nn(-c4ccc5ncccc5c4)c3n2)C1)N1CCN(CCO)CC1", "GCN2 (Homo sapiens, UniProt Q9P2K8)", "25 to 200 nM"]
]}

Name the recorded IC50 of the item CNC(=O)[C@]1(C)CC[C@@H](Nc2ncc3c(Br)nn(-c4cc(CN5CCNCC5=O)c5ncccc5c4)c3n2)C1 in your answer.
25 to 200 nM

Name the recorded IC50 of the item CNC(=O)[C@]1(C)CC[C@@H](Nc2ncc3c(Br)nn(-c4cc(NC(=O)CN)c5ncccc5c4)c3n2)C1 in your answer.
25 to 200 nM

Name the recorded IC50 of the item CNC(=O)[C@]1(C)CC[C@@H](Nc2ncc3c(Br)nn(-c4ccc5nc(N6CCNCC6)ncc5c4)c3n2)C1 in your answer.
< 25 nM

Name the recorded IC50 of the item Cc1nnc(-c2ccc(-n3nc(Br)c4cnc(N[C@@H]5CCC(C)(C(=O)N6CCNCC6)C5)nc43)cc2)o1 (stereo partly shown) in your answer.
25 to 200 nM

Name the recorded IC50 of the item CC1(C(=O)NCC(F)F)CC[C@@H](Nc2ncc3c(Br)nn(-c4cc(F)c5ncccc5c4)c3n2)C1 (stereo partly shown) in your answer.
25 to 200 nM
